Test system: K4 kissing-loop RNA reporter;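 further: bound reporter read as fluorescence of individual clusters on recovered sequencing chips by microscopy, with normalized cluster intensities fitted with a binding model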
Assay: apparent KD of K4 kissing-loop reporter; higher = weaker reporter binding
Details: Eterna round: R107; input ligand: tryptophan 2.4 mM

Sequence | Measured On | Unit Of Measurement | apparent KD of K4 kissing-loop reporter
CGCAGUGAUGUUGCGAAUAUAAUCACGGAAGGAGCGCGUGAAAACGCAGGUAGGUCGCCGUGUGGUAUGAUGGAAACAUCGUACC [Arginine A K4 12] | K4 kissing-loop RNA reporter | nM | 191
AAUUAAUGUAUAGAUUAUAUACAUUAAUCAGAGGAUAUGCUUUGUUGCAGAAGGCUGAAUGCAGUGAUGUUGCAAUUUUAAUUUA [JR_SSFMNA_Sub005] | K4 kissing-loop RNA reporter | nM | 46.7
UGUUGAGUGAUGUUCGAUGUAGUUCAUUCAGAGGAUAUAGGGUGGGCUAGAAGGCUGAAAAGUGCUUCGAGUGAUGUUCGAAGAU [Exclusion FMN A GF 7] | K4 kissing-loop RNA reporter | nM | 91.1
AGUAGAGCAUCAGAUACCAGACAGAACUGAUGGUAAGGAGUGAUGUUCCUUAAUCAGCUUGUCCCUUGGCAGCUGAUAGUAGUCA [#14 K4 Theophylline B Same State] | K4 kissing-loop RNA reporter | nM | 383
CAAUGAGUAUAAGAUGAUAUCAUAACAGAAGGAGCGAGUGAUAACUCAGGUAGGUCGCUGAAUUUAUCGAGUGAUGUUCGAUAGA [whbob_SS_Arginine_A_sa117] | K4 kissing-loop RNA reporter | nM | 176
AAUAAACAGUCGGCCGCCACUUCAAUAGACUUAUUAUUGAAUGGUGUAGUUCUUCAGUGAUGUUGAAGGACCGGGACUUUCGCGC [Isesator] | K4 kissing-loop RNA reporter | nM | 158
UAGAGAUCGAGAAGGAGCGAGAAAGCUAGUACAUAUGUACUAGCAAAGCAGUGAUGUUGCACUCAGGUAGGUCGCUCGAUCUCAU [AK1.1 SS Arginine B] | K4 kissing-loop RNA reporter | nM | 305
AGUGCACUGUCAGGAUAUAUACAGUGAUGUUGUGUAUGUCAGCAAGUCAAAGACUUGCUCUUCUGUGUAGAAGGGACUGUGUACA [Omei KL FMN B Exc A v4] | K4 kissing-loop RNA reporter | nM | 133
UAAGAGGACCACUGCAAGAGUCCUCGAAUACGAGGACCGGUACGGCCGCCACUCGAUAACUUGCAGUGAUGUUGCAAGUAAGAAU [(T)''-(K)'-(T)'-(T1)-(T2)-(K1)-(K2)_Design1] | K4 kissing-loop RNA reporter | nM | 84.4
CCGAAGAACCAGUGAUGUUGGUUGACUAGACAGGAUAUGAGCAACAUCAGAAGGGUCUGGCUUCGGGAGUAGGUCGCGCUGACCC [Diarrebi] | K4 kissing-loop RNA reporter | nM | 231
CAUGGACUUCCAGUGUAUCCAUGACUGGAUACCAGUCAGGAAACUGACCCUUGGCAGCCAGAACUGGAAGUGAUGUUUCCAGUAA [Design8] | K4 kissing-loop RNA reporter | nM | 240
UGACAUUGCUCAGAUACCAGACAAGAGGAUCACCCUUGUGCCAACGUACAAAUAAUAAAUGUCCCUUGGCAGCUGAGCAAUGUCU [TheoBX 15] | K4 kissing-loop RNA reporter | nM | 47.5
GCUCGUCAUGUCAGCGGUGGUACUGUCGAUACCAGUGCCGUAAGGCGCCCUUGGCAGCGAUGCGCUGGAGUGAUGUUCCAGCGUU [#2 Exclusion - Theophylline A Attempt #32 (HarryS)] | K4 kissing-loop RNA reporter | nM | 119
UUUCGGUUCUGAGGAUAUUCGGACAAAUAUAGUGAUGUUGUAUAAGGAGGAGGGUGUUGGCAGUGCGGAGAAGGCAGAAGAGGAU [ExFMNB.U] | K4 kissing-loop RNA reporter | nM | 446
UGCGCUGUGUACUGAAAUGUUCUGCGGGAUACCAGAGUCUUUUUAUUCCCUUGGCAGCUUGAGUGAUGUUUGAUGCCGUUCUUGU [tffeymullin] | K4 kissing-loop RNA reporter | nM | 435
CUUUAUCAACCAGAUACCAGCGGUUCUCUAGUUGGCUUCCGUAGUGAUGUUGCGUGGUCCCGCCCUUGGCAGCUGGCCAUGACUA [theeternabot_sameState_KL_Theo_B_5] | K4 kissing-loop RNA reporter | nM | 993
UGAUAGGACAGAAGGAGCGGCAGUGAUGUUGCCAAAAGGGUAAGGUGUCAAAAGACACCCUGCCAGGUAGGUCGCUGUCCUAUCU | K4 kissing-loop RNA reporter | nM | 134
GCCGUAGAUGGAAGGAGCGUGUCCAAACCUCAUUCAUGUACACACGAGUGAUGUUCGUGUACACAGGUAGGUCGCCAUCUACGGC | K4 kissing-loop RNA reporter | nM | 363
AGCAGUCCAGGAUCGAAAGAUCCUGAGGUCCGAGGACCGGUACGGCCGCCACUCGGAGUGAUGUUCCGAAGACUGCAAAAUAAAA [#SwitchBubble 5] | K4 kissing-loop RNA reporter | nM | 105
GGUAGCAUGGCGGCCGCCACUUAUGUUCACAUAGUGAUGUUAUGUUCACAUUUAUGGCCCUGCUUAAGGACCGGGCCAUGCUACC | K4 kissing-loop RNA reporter | nM | 272
UAGUAGUAGCGAGGAUAUGCAAUAGGCGAGUGAUGUUCGCCAGGCGGGCGUCGCAUAUAAGAAAGAGCAGAAGGCGCUAGGUAGA [SameState - FMN B / A] | K4 kissing-loop RNA reporter | nM | 399
GUGCAGUGAUGUUGCACGAGGAAAGACGAUACCAGCCGUAAAUAAGGCCCUUGGCAGCGUGGACUAGCAUAAAGUAUGCUAGCCU [Isenaonle] | K4 kissing-loop RNA reporter | nM | 96.5
AUCUGUCAAGGACAACAUUACUGAGGUGAUACCAGCAUCGAAAGAUGCCCUUGGCAGCACCAACUUGCAGUGAUGUUGCAAGUAA [BrourdMod 10 - Jieux - Exclusion - Theophylline A] | K4 kissing-loop RNA reporter | nM | 299
